# Test system: NCI-H460 lung
# MEASUREMENT PROTOCOL: NCI-60 one-dose screen, 48 h (100 = growth as untreated, 0 = no growth, -100 = all killed)
# CONDITIONS USED: 10 µM unless noted
About 83,000 compounds went through this panel and 20% of them were active in at least one assay; those are over-represented in the sample as a whole.
Just so you know, the groups by growth go like this: low group (below 60%), middle group (60% to below 90%), high group (90% or more)

Solved entries (count: 7):
Qu. Textbook exercise: identify the category of the compound given here, O=C(Cn1c(=O)sc2nc3ccccc3nc21)Nc1ncc(Cc2cccc(Cl)c2Cl)s1 , according to its measured value.
Ans. high group

Qu. Textbook exercise: identify the category of the compound given here, COc1cc2c(c(OC)c1OC)C(=O)CC(c1cccc(NC(=O)c3ccc(Br)cc3)c1)O2 (stereo not given) , according to its measured value.
Ans. low group

Qu. Textbook exercise: identify the category of the compound given here, CSc1nc2sc3c(c2c(=O)n1-c1ccc([N+](=O)[O-])cc1)CCCCC3 , according to its measured value.
Ans. middle group

Qu. Textbook exercise: identify the category of the compound given here, O=C1COCCN1c1ccc(Nc2nc(Cl)nc(OCc3cn(Cc4ccccc4)nn3)n2)cc1 , according to its measured value.
Ans. high group

Qu. Textbook exercise: identify the category of the compound given here, COCCNC(=O)c1ccc(-c2nc3ccc4[nH]ncc4c3c3c2CCCC3)cc1 , according to its measured value.
Ans. low group

Qu. Textbook exercise: identify the category of the compound given here, COc1cc(OC)c2sc(-c3ccc(-n4cncc4-c4ccc(OC)c(OC)c4)cc3)nc2c1 , according to its measured value.
Ans. low group

Qu. Textbook exercise: identify the category of the compound given here, O=C(Nc1cccnc1Nc1ccc(F)cc1)c1cn(Cc2cccc(Oc3ccccc3)c2)nn1 , according to its measured value.
Ans. middle group

***
Qu. Textbook exercise: identify the category of the compound given here, Cc1ccc(S(=O)(=O)N2CCCC2CO)cc1 (stereo not given) , according to its measured value.
Ans. high group

====

# Test system: SR leukemia
# MEASUREMENT PROTOCOL: NCI-60 one-dose screen, 48 h
# CONDITIONS USED: 10 µM unless noted
About 83,000 compounds went through this panel and 20% of them were active in at least one assay; those are over-represented in the sample as a whole. Activity calls are given as the source filed them. The calls were made as follows: active = growth percent below 10; inactive = the rest.
Use one of these outcomes when replying: true for active, false for inactive

Qu. Which outcome did this test record for the compound Fc1ccc(Nc2nc3nonc3nc2Nc2ccc(I)cc2)cc1 ?
Ans. true

Qu. Which outcome did this test record for the compound Cn1c(O)c(C=NCCN=Cc2c(O)n(C)c(=O)n(C)c2=O)c(=O)n(C)c1=O ?
Ans. true

Qu. Which outcome did this test record for the compound CCN(CC)CCCN1C(=O)c2c(c(C)c3c(oc4cc(O)ccc43)c2C)C1=O ?
Ans. true

Qu. Which outcome did this test record for the compound CCS/C(Nc1ccccc1)=C(\C#N)C(=O)N/N=C/c1ccc(Cl)cc1Cl ?
Ans. false

Qu. Which outcome did this test record for the compound CCOP(=O)(OCC)c1nc(-c2ccccc2)oc1NCc1cccnc1 ?
Ans. false

Qu. Which outcome did this test record for the compound CCCCCCCCn1ccc2cc(NC(=O)Cn3cc(CN4CCCCC4)nn3)ccc21 ?
Ans. true

Qu. Which outcome did this test record for the compound CC1(C)CCC(S(=O)(=O)c2ccc3c(c2)/C(=N\O)c2cc(S(=O)(=O)N4CCC(O)(c5cccc(C(F)(F)F)c5)CC4)ccc2-3)CC1 ?
Ans. true

Qu. Which outcome did this test record for the compound CCCCN1C(=O)/C(=c2\sc3n(c2=O)C2C(NN=3)N(CC)C(=O)N2CC)c2ccccc21 (centres undefined) ?
Ans. false

Qu. Which outcome did this test record for the compound C/C(=N/O)c1ccc(F)cc1 ?
Ans. false

Qu. Which outcome did this test record for the compound CC(C)N1CCN(Cc2ccc3c(NNC(=O)c4ccccc4)nc4cc(F)ccc4n23)CC1 ?
Ans. true

***
Qu. Which outcome did this test record for the compound CN([O-])c1nc(N(C)[O-])nc(N2CCOCC2)n1.CN([O-])c1nc(N(C)[OH2+])nc(N2CCOCC2)n1.[Fe+3] ?
Ans. false

Qu. Which outcome did this test record for the compound Cc1ccc(S(=O)(=O)N2CCCC2CO)cc1 (centres undefined) ?
Ans. false

Qu. Which outcome did this test record for the compound O=C1COCCN1c1ccc(Nc2nc(Cl)nc(OCc3cn(Cc4ccccc4)nn3)n2)cc1 ?
Ans. true

Qu. Which outcome did this test record for the compound CC[C@]12C=CCN3CC[C@@]4(c5cc(NC(=O)CCC(=O)OCc6cn(Cc7ccc(F)cc7)nn6)c(OC)cc5N(C)[C@H]4[C@@](O)(C(=O)OC)[C@@H]1OC(C)=O)[C@@H]32 ?
Ans. false

Qu. Which outcome did this test record for the compound N#CC1=C(c2ccc(Cl)cc2)Nc2c(c(-c3ccc(Cl)cc3)nn2-c2ccccc2)C12C(=O)Nc1ccc(Cl)cc12 (centres undefined) ?
Ans. false

Qu. Which outcome did this test record for the compound O=C(CSc1nc2ccc([N+](=O)[O-])cc2[nH]1)Nc1ccc(F)cc1 ?
Ans. false

Qu. Which outcome did this test record for the compound Cc1cc(=O)[nH]c2c(C#N)cnn12 ?
Ans. false

Qu. Which outcome did this test record for the compound COC(=O)c1c2c(c(C)[n+]([O-])c1C)C(=O)C=C(NCc1ccc(OC)cc1)C2=O ?
Ans. true

Qu. Which outcome did this test record for the compound COc1ccc2cc(-c3ccc(NC(C)=O)c(=O)o3)ccc2c1 ?
Ans. false

These data points were gathered from PubChem BioAssay (NCI).
